Biological target: human Keap1 Kelch domain (Homo sapiens)
Construct: human Keap1 Kelch domain (residue 321-609, UniProt Q14145); made in house; host or cells: Escherichia coli BL21 (DE3) pLysS, pRSET A vector
Sequence (Q14145 321-609): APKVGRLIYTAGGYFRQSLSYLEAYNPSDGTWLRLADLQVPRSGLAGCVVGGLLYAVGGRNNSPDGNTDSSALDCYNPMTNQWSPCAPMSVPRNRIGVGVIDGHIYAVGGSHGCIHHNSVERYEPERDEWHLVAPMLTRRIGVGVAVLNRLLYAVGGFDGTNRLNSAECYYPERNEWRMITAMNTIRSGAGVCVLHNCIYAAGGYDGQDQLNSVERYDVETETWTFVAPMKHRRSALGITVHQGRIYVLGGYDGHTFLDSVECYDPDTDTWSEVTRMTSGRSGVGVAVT
Test: Fluorescence polarization (FP) competition assay, Cy5-Nrf2 peptide probe
Assay type: binding
Conditions: heterologous competition FP; Keap1 Kelch 14 nM, Cy5-Nrf2 probe 3 nM, 4% DMSO; mean ± SEM
Rule: measured Ki below 0.2 µM gets Criterion met; anything equal to or greater than 0.2 µM gets Criterion not met.

compound | category-label
COc1ccc(C(CC(=O)O)c2ccc3ccc(OCC(=O)NC4CCCCCC4)cc3c2)cc1 (stereo not drawn) | Criterion met
COc1ccc(NC(=O)COc2ccc3ccc(CCC(=O)O)cc3c2)cc1 | Criterion not met
Cc1cc2c(cc1C(CC(=O)O)c1ccc3ccc(OCC(=O)NC4CCCCC4)cc3c1)OCCO2 (stereo not drawn) | Criterion met
CN(C(=O)COc1ccc2ccc(C(CC(=O)O)c3ccc4c(c3)OCO4)cc2c1)C1CCCCCC1 (stereo not drawn) | Criterion met
O=C(O)CC(c1ccc2c(c1)OCO2)c1ccc2ccc(OCC(=O)N[C@H]3CC[C@H](C(F)(F)F)CC3)cc2c1 (stereo partly drawn) | Criterion not met
O=C(O)CC(c1ccc(O)cc1)c1ccc2ccc(OCC(=O)NC3CCCCCC3)cc2c1 (stereo not drawn) | Criterion met
O=C(O)CC(c1ccc2ccc(OCC(=O)NC3CCCCCC3)cc2c1)c1ccc2occc2c1 (stereo not drawn) | Criterion met
O=C(O)CC(c1cccc(Cl)c1)c1ccc2ccc(OCC(=O)NC3CCCCCC3)cc2c1 (stereo not drawn) | Criterion met
